Just for reference, ChEMBL document CHEMBL1275266 is where these values come from.

# maps each entry to its pIC50
System: BGC-823
Assay: Cytotoxicity against human BGC823 cells by MTT assay
Assay type: functional, cell-based
Scale: negative log10 of molar concentration, which is what pIC50 denotes.

>>> recorded_value("CCN(CC)CCCNCc1cc2c3ccccc3n(CCCc3ccccc3)c2c(-c2cc(OC)c(OC)c(OC)c2)n1")
5.23

Would you kindly share the measured pIC50 for CC(=O)O[C@H]1C(=O)[C@@]2(C)[C@H]([C@H](OC(=O)c3ccccc3)[C@]3(O)C[C@H](OC(=O)[C@H](O)[C@@H](NC(=O)c4ccccc4)c4ccccc4)C(C)=C1C3(C)C)[C@]1(OC(C)=O)CO[C@@H]1C[C@@H]2O ?
5.82

# repeat for COc1cc(-c2nc(CNCCCN(C)C)cc3c4ccccc4n(CCCc4ccccc4)c23)cc(OC)c1OC
5.07

Moving on to CCCCn1c2ccccc2c2cc(CNCCCN(CC)CC)nc(-c3cc(OC)c(OC)c(OC)c3)c21
5.21

Input CCCCn1c2ccccc2c2cc(CNCCCN(C)C)nc(-c3cc(OC)c(OC)c(OC)c3)c21
5.17

Now give it for CCCCn1c2ccccc2c2cc(CNCCCCN(CC)CC)nc(-c3cc(OC)c(OC)c(OC)c3)c21 too.
4.72

Lookup CCN(CC)CCCCNCc1cc2c3ccccc3n(CCCc3ccccc3)c2c(-c2cc(OC)c(OC)c(OC)c2)n1
5.21

Moving on to CCN(CC)CCNCc1cc2c3ccccc3n(CCCc3ccccc3)c2c(-c2cc(OC)c(OC)c(OC)c2)n1
5.57

What would you report for CCN(CC)CCCNCc1cc2c3ccccc3n(C)c2c(-c2cc(OC)c(OC)c(OC)c2)n1 ?
4.31

Request: CCN(CC)CCCCNCc1cc2c3ccccc3n(C)c2c(-c2cc(OC)c(OC)c(OC)c2)n1
4.33

And the next one, CCCCn1c2ccccc2c2cc(CNCCN(CC)CC)nc(-c3cc(OC)c(OC)c(OC)c3)c21 ?
4.86

###

Test system: KB
Assay: Cytotoxicity against human KB cells by MTT assay
Type: functional, cell-based
measurement_label: pIC50
Bear in mind: pIC50 is minus log10 of a mol/L concentration; give just that figure.

Record excerpt, results attached:
>>> recorded_value("COc1cc(-c2nc(CNCCCN(C)C)cc3c4ccccc4n(CCCc4ccccc4)c23)cc(OC)c1OC")
5.36
>>> recorded_value("CCCCn1c2ccccc2c2cc(CNCCCN(CC)CC)nc(-c3cc(OC)c(OC)c(OC)c3)c21")
4.43
>>> recorded_value("CCN(CC)CCCNCc1cc2c3ccccc3n(CCCc3ccccc3)c2c(-c2cc(OC)c(OC)c(OC)c2)n1")
5.19
>>> recorded_value("CCN(CC)CCCCNCc1cc2c3ccccc3n(CCCc3ccccc3)c2c(-c2cc(OC)c(OC)c(OC)c2)n1")
5.16
>>> recorded_value("CCCCn1c2ccccc2c2cc(CNCCCCN(CC)CC)nc(-c3cc(OC)c(OC)c(OC)c3)c21")
5.12

Identify the measured pIC50 of CCN(CC)CCNCc1cc2c3ccccc3n(CCCc3ccccc3)c2c(-c2cc(OC)c(OC)c(OC)c2)n1 for KB.
5.60

###

System: OS-RC-2
Experiment: Cytotoxicity against human OS-RC2 cells by MTT assay
Assay type: functional, cell-based
measurement_label: pIC50
Friendly reminder that pIC50 comes from taking -log10 of the concentration in mol/L.

>>> recorded_value("CCCCn1c2ccccc2c2cc(CNCCN(CC)CC)nc(-c3cc(OC)c(OC)c(OC)c3)c21")
4.34

Fill in the blank: the reported pIC50 of CCN(CC)CCCNCc1cc2c3ccccc3n(CCCc3ccccc3)c2c(-c2cc(OC)c(OC)c(OC)c2)n1 is ____.
5.08

Now the compound CCCCn1c2ccccc2c2cc(CNCCCCN(CC)CC)nc(-c3cc(OC)c(OC)c(OC)c3)c21
4.54

Now try COc1cc(-c2nc(CNCCCN(C)C)cc3c4ccccc4n(CCCc4ccccc4)c23)cc(OC)c1OC .
5.03
